- Assay Target: Acetylcholinesterase (Homo sapiens)
- Sequence (P22303 whole entry): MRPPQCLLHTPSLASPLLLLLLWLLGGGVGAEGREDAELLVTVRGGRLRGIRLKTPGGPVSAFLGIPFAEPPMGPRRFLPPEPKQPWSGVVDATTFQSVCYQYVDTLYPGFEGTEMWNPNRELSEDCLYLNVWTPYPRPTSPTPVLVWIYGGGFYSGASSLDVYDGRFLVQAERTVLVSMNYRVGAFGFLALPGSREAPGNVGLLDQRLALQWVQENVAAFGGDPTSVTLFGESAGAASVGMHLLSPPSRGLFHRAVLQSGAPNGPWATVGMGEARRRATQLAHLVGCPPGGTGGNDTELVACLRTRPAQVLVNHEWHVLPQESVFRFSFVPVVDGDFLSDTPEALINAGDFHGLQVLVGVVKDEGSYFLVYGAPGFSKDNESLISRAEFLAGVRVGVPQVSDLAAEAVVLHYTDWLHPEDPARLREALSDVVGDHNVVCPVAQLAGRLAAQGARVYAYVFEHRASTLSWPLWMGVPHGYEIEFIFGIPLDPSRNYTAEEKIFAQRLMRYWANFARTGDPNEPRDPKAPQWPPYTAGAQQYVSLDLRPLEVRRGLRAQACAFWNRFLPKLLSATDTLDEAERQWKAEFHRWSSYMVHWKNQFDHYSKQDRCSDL
- Experiment: Inhibition of human erythrocytes recombinant AChE assessed as dissociation constant for enzyme-inhibitor complex
Property Name: pKi
Worth noting: pKi values are minus log10 of concentrations stated in mol/L.

Given the entry c1ccc2c(c1)ccc[n+]2Cc1ccc2ccc(C[n+]3cccc4ccccc43)cc2c1 , report its measured pKi.
5.64

---

- Assay Target: Cholinesterase (Homo sapiens, UniProt P06276)
- Sequence (P06276 whole entry): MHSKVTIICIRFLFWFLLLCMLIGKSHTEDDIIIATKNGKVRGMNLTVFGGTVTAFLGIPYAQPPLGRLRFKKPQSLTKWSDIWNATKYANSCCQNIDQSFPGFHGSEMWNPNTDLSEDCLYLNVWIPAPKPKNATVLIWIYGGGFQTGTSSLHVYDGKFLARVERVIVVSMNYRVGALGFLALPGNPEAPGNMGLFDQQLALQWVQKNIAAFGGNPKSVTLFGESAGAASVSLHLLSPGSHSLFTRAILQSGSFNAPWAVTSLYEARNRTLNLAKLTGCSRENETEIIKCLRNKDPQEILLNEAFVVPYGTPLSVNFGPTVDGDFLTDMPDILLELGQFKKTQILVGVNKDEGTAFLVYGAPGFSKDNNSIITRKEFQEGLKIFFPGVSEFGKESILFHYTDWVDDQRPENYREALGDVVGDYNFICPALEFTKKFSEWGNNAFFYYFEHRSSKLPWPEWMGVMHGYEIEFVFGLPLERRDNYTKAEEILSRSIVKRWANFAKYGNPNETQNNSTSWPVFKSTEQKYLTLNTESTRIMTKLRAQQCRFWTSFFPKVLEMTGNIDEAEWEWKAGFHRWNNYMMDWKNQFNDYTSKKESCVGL
- Experiment: Inhibition of human plasmatic BChE by modified Ellman's method
pIC50: −log10 of the molar value.
Label rule, in plain words: pIC50 of 5 and up is 1.0, under 5 is 0.0.

Quick check: does c1ccc2c(c1)ccc[n+]2CCCCCCCCCCCC[n+]1cccc2ccccc21 have pIC50 greater than or equal to 5?
1.0

Try the compound c1ccc2c(c1)ccc[n+]2Cc1ccc2ccc(C[n+]3cccc4ccccc43)cc2c1
1.0

Same question for C(=C/C[n+]1cccc2ccccc21)/C[n+]1cccc2ccccc21 please.
1.0

Please do the same for C[N+](C)(CCNC(=O)C(=O)NCC[N+](C)(C)Cc1ccccc1Cl)Cc1ccccc1Cl [AMBENONIUM DICHLORIDE] as well.
1.0

Please give the result for C(=C\C[n+]1cccc2ccccc21)/C[n+]1cccc2ccccc21 too.
0.0

Field entry: c1ccc2c(c1)ccc[n+]2CCCCCCCC[n+]1cccc2ccccc21
1.0

Same question for c1ccc2c(c1)ccc[n+]2CCCCC[n+]1cccc2ccccc21 please.
0.0

And what about the compound c1ccc2c(c1)ccc[n+]2CCCCCCCCCCC[n+]1cccc2ccccc21 ?
1.0

// same read-out, input: c1cc(C[n+]2cccc3ccccc32)cc(C[n+]2cccc3ccccc32)c1
0.0
